- Test system: A549 NSCLC
- experimental_details: NCI tumour cell line growth inhibition, 48 h
readout_name: TGI

Recorded results for 2 compounds are shown here.
[[record]]
compound = "CN(CCNC(=O)c1c[nH]c2c1ccc1ccccc12)CCNC(=O)c1c[nH]c2c1ccc1ccccc12"
readout_name = "TGI"
result = "5.83 µM"

[[record]]
compound = "CNCC/C=C1\\c2cc3c(cc2-c2c1c1cc(OC)c(OC)cc1c(=O)n2C)OCO3"
readout_name = "TGI"
result = "18.8 µM"


// field: TGI; key: O=C1CC(c2c(-c3ccccc3)[nH]c3ccccc23)C(=O)N1c1ccccc1 (configuration not stated) ; value = > 100 µM

// field: TGI; key: c1ccc2c(c1)nc1n2CSCC1 ; value = > 100 µM

// field: TGI; key: Cc1cc(N(CCC#N)CCC#N)ccc1N=Nc1cc(Cl)ccc1Cl ; value = 38.5 µM

// field: TGI; key: Cn1nc2ccc([N+](=O)[O-])cc2[n+]1[O-] ; value = > 100 µM
